This collection of values is drawn from paper PMC8584173.

Protein Intensity, % (GSTO1): recorded values
# Tested on: Glutathione S-transferase omega-1 (GSTO1_HUMAN)
# assay text: LC–MS proteome analysis, GSTO1
# Format: cell-based, Homo sapiens
# measurement conditions: PC3, 24 h, IC50 concentration, % of control
# Experimental: Enzymes involved in oxidoreductive potential were analyzed in the cell lysates obtained after treatment cells with selected conjugates for 24 h. Cells were washed with phosphate-buffered saline (PBS) and harvested, then centrifuged at 1000× g for 10 min. […] Protein concentration was measured by the Bradford method. […] The collected spectra were analyzed and calibrated using DataAnalysis software (Bruker) and then identified in ProteinScape (Bruker) by the MASCOT server. […]
Quick note: give the figure in %, leave out the unit.

The examples below pair each entry with its known result.
compound O=[N+]([O-])c1cc([N+]2=C(Nc3ccccc3F)[S][Cu-2]23[S]C(Nc2ccccc2F)=[N+]3c2ccc(Cl)c([N+](=O)[O-])c2)ccc1Cl [Compound 7] , Protein Intensity, % (GSTO1) observed: 68.6

compound O=[N+]([O-])c1cc([N+]2=C(Nc3ccc(Br)cc3)[S][Cu-2]23[S]C(Nc2ccc(Br)cc2)=[N+]3c2ccc(Cl)c([N+](=O)[O-])c2)ccc1Cl [Compound 3] , Protein Intensity, % (GSTO1) observed: 64.0

compound O=[N+]([O-])c1cc([N+]2=C(Nc3ccccc3Br)[S][Cu-2]23[S]C(Nc2ccccc2Br)=[N+]3c2ccc(Cl)c([N+](=O)[O-])c2)ccc1Cl [Compound 1] , Protein Intensity, % (GSTO1) observed: 65.0

Could you now consider this next compound?
compound O=[N+]([O-])c1cc([N+]2=C(Nc3ccc(I)cc3)[S][Cu-2]23[S]C(Nc2ccc(I)cc2)=[N+]3c2ccc(Cl)c([N+](=O)[O-])c2)ccc1Cl [Compound 8] , Protein Intensity, % (GSTO1) observed: 31.6
